# GI50 listing for each entry below
- Tested on: CCRF-CEM
- ASSAY TEXT: NCI tumour cell line growth inhibition, 48 h
The source made the active and inactive calls. Cut-off read from the data, not from the text of the source: active = GI50 up to about 1.1 µM and inactive = higher.
ENDPOINT NAME: GI50

# COMPOUND, ENDPOINT NAME, REPORTED
rows = [
    ("Cc1ccc(-n2c(C)nc3c2C(=O)c2ccccc2C3=O)cc1", "GI50", "11.1 µM (inactive)"),
    ("CC(=O)Nc1ccc(/C=C2/NC(=S)N(/C=C3\\C(=O)Oc4ccccc4C3=O)C2=O)cc1", "GI50", "45.1 µM (inactive)"),
    ("CCCc1cc(=O)oc2c3c(c4c(c12)OC(C)(C)C=C4)O[C@@H](C)[C@H](C)C3=O", "GI50", "15.1 µM (inactive)"),
    ("COc1ccc(-c2ccccc2)c2[nH]c3c(c12)CCNC3=O", "GI50", "> 100 µM (inactive)"),
    ("Cc1c(NC(=S)NC(=O)c2ccc([N+](=O)[O-])cc2)c(=O)n(-c2ccccc2)n1C", "GI50", "> 100 µM (inactive)"),
    ("CC(C)CC(N)C(=O)NC(CNC(CCC(N)=O)C(=O)NC(CC(C)C)C(=O)NC(CC(C)C)C(=O)O)Cc1ccc2ccccc2c1 (centres undefined)", "GI50", "> 10 µM (inactive)"),
    ("C[N+]1([O-])C2CCC1CC(OC(=O)C(CO)c1ccccc1)C2 (centres undefined)", "GI50", "> 100 µM (inactive)"),
    ("COc1ccc(/C=N/n2c(-c3ccccc3)n[nH]c2=O)c(OC)c1", "GI50", "> 100 µM (inactive)"),
    ("O=C1CCCCC2N(C(c3ccccc3)c3ccccc3)CC[C@@]12c1ccccc1.O=C1CCCC[C@H]2N(C(c3ccccc3)c3ccccc3)CC[C@@]12c1ccccc1 (some centres undefined)", "GI50", "6.12 µM (inactive)"),
]

Each recorded value in this set is attributed to ChEMBL document CHEMBL1201862.
